Measured % inhibition of 4T1 cell number, listed per entry.
- System: 4T1
- assay summary: % inhibition of 4T1 cell number vs DMSO control; higher = stronger growth inhibition
- run conditions: 1 µM; 3 days; substrate: lung fibroblast-derived matrix
Write the answer as a number in %, unit excluded.

compound=CC(=O)O/N=C1/C(c2c(O)[nH]c3cc(Br)ccc23)=Nc2ccccc21 observed_value=-8.8
compound=O=C1C(Cl)=C(N2C(=O)CCC2=O)C(=O)c2ccccc21 observed_value=-5.8
compound="O=C1Nc2ccc(Cl)cc2/C1=C/c1cc(Cl)c(O)c(Cl)c1 [PKR Inhibitor, Negative Control]" observed_value=86.7

Field: next compound
Challenge: # lookup: % inhibition of 4T1 cell number of Cn1cc(C2=C(c3cn(CCCSC(=N)N)c4ccccc34)C(=O)NC2=O)c2ccccc21
Response given: -2.42

Origin of the recorded values: the supplement of paper PMC8269313
